Test System: SMYD2 (Homo sapiens (Human))
Sequence (Q9NRG4 whole entry): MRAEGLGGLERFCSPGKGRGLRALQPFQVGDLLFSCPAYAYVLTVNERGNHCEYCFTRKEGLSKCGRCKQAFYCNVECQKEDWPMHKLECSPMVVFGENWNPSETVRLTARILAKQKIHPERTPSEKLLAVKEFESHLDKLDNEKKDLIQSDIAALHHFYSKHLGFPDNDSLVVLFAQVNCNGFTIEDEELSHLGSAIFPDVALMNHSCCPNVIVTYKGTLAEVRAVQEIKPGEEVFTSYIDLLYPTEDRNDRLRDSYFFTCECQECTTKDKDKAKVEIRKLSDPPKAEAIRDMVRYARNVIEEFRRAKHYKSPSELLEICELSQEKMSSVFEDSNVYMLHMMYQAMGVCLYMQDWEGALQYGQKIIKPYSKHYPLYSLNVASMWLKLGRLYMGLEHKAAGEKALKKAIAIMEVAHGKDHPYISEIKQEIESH
Test Details: SMYD2 biochemical assay (SMYD2 enzyme assay on peptide substrate, 3H-SAM Flashplate)
Condition Parameters: read-out: SMYD2 Biochem IC50; IC50 values are an average of n = 1 to n = 50
What IC50 was measured for each of the following?

{"columns": ["Given Smiles", "IC50"],
 "data": [
  ["O=C(NC1CN(C2(c3ccccc3)COC2)C1)c1cn(C2CC2)nn1", "> 50 µM"],
  ["CN(C)CCNC(=O)c1cn(C2CC2)nn1", "> 50 µM"]
]}

# input for lookup
Query string: Recorded IC50 for C[C@H](c1ccccc1)N1CC(NC(=O)c2ncc(C3CC3)[nH]2)C1 , please?
Result string: > 50 µM
